SYSTEM TESTED: CDC2/CDK1 (h) (cycB) (Homo sapiens (Human), UniProt P06493)
Sequence (P06493 whole entry): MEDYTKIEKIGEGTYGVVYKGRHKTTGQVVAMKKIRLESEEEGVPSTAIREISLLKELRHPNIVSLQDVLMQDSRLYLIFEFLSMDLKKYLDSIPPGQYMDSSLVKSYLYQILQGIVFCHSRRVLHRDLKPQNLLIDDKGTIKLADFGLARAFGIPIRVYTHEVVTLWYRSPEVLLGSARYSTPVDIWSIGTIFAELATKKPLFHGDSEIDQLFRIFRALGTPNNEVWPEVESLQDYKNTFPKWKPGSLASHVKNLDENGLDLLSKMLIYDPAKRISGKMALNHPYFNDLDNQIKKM
Sequence (P14635 whole entry partner): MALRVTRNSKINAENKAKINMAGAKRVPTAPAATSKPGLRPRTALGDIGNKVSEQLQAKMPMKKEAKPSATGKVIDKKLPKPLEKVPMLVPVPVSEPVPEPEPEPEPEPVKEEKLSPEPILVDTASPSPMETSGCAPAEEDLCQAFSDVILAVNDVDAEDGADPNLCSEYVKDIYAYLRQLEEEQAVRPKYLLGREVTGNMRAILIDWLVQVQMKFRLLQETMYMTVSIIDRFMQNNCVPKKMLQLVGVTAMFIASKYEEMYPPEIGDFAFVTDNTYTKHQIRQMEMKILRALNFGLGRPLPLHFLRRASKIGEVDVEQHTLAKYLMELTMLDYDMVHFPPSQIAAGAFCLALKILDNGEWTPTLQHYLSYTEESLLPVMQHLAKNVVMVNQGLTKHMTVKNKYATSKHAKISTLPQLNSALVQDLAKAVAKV
PROTOCOL NOTES: Kinase selectivity panel
Assay type: biochemical
MEASUREMENT SETUP: duplicate, read-out: % inhibition of control values, CDC2/CDK1 (h) (cycB)
Counter-ions that a name gives are not always drawn.
MEASURE NAME: inhibition at 10 µM (%)

Known inhibition at 10 µM results, listed for orientation:
• COC(=O)c1csc(CN2CCC(CNC(=O)c3n[nH]c4ccc(OC)cc34)CC2)n1 [Compound 7] = 6
• COc1ccncc1-c1ccc2[nH]nc(C(=O)NCC3CCN(Cc4ccc(C(=O)O)o4)CC3)c2c1 [Compound 21, formate] = 99

(I) O=C(O)c1coc(CN2CCC(CNC(=O)c3n[nH]c4ccc(-c5cccc(F)c5F)cc34)CC2)n1 [Compound 12, hydrate]
(II) COc1ccc2[nH]nc(C(=O)NCC3CCN(CCc4ccc(O)cc4)CC3)c2c1 [Compound 1]
(III) COc1ccc2[nH]nc(C(=O)NCC3CCN(Cc4ccc(C(=O)O)o4)CC3)c2c1 [Compound 24]
Q: List items by inhibition at 10 µM in falling order. // ordering of labels required in reply
Ans: I, II, III
(I: 77%, II: 31%, III: 10%)

###

SYSTEM TESTED: DYRK1a (h) (Homo sapiens (Human), UniProt Q13627)
PROTOCOL NOTES: Kinase selectivity panel and IC50 determination
Type: biochemical
MEASUREMENT SETUP: 10 μM, duplicate; read-out: % inhibition of control values, DYRK1a (h)
Description: (a) Compound 1 was tested against a panel of 60 kinases in order to assess its selectivity. The assays were chosen taking into consideration the diversity of assay families. Human recombinant kinases were incubated in the presence of specific peptide substrates plus ATP for different times (10, 15, 30, 60 or 90 minutes) at 22° C. Phosphorylated substrate was detected by LANCE or HTRF technology (CISBIO, MA, USA). Compound 1 was tested at 10 μM in duplicate. […]
Counter-ions that a name gives are not always drawn.
MEASURE NAME: inhibition at 10 µM (%)

• O=C(O)c1coc(CN2CCC(CNC(=O)c3n[nH]c4ccc(-c5cccc(F)c5F)cc34)CC2)n1 [Compound 12, hydrate] = 99
• COc1ccncc1-c1ccc2[nH]nc(C(=O)NCC3CCN(Cc4ccc(C(=O)O)o4)CC3)c2c1 [Compound 21, formate] = 99
• COc1ccc2[nH]nc(C(=O)NCC3CCN(CCc4ccc(O)cc4)CC3)c2c1 = 63

(P) COC(=O)c1csc(CN2CCC(CNC(=O)c3n[nH]c4ccc(OC)cc34)CC2)n1
(Q) COc1ccc2[nH]nc(C(=O)NCC3CCN(Cc4ccc(C(=O)O)o4)CC3)c2c1
Q: From the recorded data, which exceeds the other in inhibition at 10 µM: P or Q ? Respond with the label that goes with your answer.
Ans: P
(P: 88%, Q: 59%)

###

SYSTEM TESTED: ERK2 (h) (P42mapk) (Homo sapiens (Human), UniProt P28482)
Sequence (P28482 whole entry): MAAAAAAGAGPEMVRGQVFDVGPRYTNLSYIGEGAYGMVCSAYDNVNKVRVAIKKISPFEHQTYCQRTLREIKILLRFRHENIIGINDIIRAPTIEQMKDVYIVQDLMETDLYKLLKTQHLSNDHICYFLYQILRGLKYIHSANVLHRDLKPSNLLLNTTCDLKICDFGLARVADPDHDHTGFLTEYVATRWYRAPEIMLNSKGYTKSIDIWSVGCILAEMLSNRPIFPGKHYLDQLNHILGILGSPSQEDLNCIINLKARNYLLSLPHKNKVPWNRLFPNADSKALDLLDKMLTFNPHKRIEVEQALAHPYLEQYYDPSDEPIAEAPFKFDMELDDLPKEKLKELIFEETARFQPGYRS
PROTOCOL NOTES: Kinase selectivity panel
Format: biochemical
MEASUREMENT SETUP: duplicate, read-out: % inhibition of control values, ERK2 (h) (P42mapk)
Where a name gives a salt, the structure may show the parent alone.
MEASURE NAME: inhibition at 10 µM (%)

Known inhibition at 10 µM results, listed for orientation:
• COc1ccncc1-c1ccc2[nH]nc(C(=O)NCC3CCN(Cc4ccc(C(=O)O)o4)CC3)c2c1 [Compound 21, formate] = 89
• COc1ccc2[nH]nc(C(=O)NCC3CCN(Cc4ccc(C(=O)O)o4)CC3)c2c1 = 35
• COC(=O)c1csc(CN2CCC(CNC(=O)c3n[nH]c4ccc(OC)cc34)CC2)n1 = 33

(P) COc1ccc2[nH]nc(C(=O)NCC3CCN(CCc4ccc(O)cc4)CC3)c2c1
(Q) O=C(O)c1coc(CN2CCC(CNC(=O)c3n[nH]c4ccc(-c5cccc(F)c5F)cc34)CC2)n1 [Compound 12, hydrate]
Q: Hello, I am sorting some records. Could you say if P or Q has the smaller inhibition at 10 µM value? Respond with the label that goes with your answer.
Ans: P
(P: 33%, Q: 91%)

###

SYSTEM TESTED: UniProt:P04629
Sequence (P04629 33-796): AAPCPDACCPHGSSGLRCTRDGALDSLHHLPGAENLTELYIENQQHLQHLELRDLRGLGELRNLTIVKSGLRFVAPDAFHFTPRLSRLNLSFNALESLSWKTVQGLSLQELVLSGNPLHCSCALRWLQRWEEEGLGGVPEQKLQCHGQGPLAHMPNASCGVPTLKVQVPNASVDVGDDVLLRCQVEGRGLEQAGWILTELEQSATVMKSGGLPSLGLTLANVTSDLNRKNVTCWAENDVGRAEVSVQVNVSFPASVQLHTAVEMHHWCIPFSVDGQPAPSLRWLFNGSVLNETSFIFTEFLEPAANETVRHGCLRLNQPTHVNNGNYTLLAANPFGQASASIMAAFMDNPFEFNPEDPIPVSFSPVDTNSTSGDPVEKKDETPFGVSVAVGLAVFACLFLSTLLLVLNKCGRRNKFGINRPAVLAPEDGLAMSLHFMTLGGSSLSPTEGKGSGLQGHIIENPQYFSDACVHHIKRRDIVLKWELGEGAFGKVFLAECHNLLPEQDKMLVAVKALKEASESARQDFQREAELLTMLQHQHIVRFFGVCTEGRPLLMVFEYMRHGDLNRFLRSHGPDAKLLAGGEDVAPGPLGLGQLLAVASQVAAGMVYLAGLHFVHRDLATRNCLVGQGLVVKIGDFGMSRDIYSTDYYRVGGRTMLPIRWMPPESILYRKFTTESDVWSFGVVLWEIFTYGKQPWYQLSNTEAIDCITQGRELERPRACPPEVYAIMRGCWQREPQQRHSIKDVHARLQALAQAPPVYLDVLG
PROTOCOL NOTES: Kinase selectivity panel
Format: biochemical
MEASUREMENT SETUP: duplicate, read-out: % inhibition of control values, TRKA (h)
Where a name gives a salt, the structure may show the parent alone.
MEASURE NAME: inhibition at 10 µM (%)

Known inhibition at 10 µM results, listed for orientation:
- COC(=O)c1csc(CN2CCC(CNC(=O)c3n[nH]c4ccc(OC)cc34)CC2)n1: 1
- O=C(O)c1coc(CN2CCC(CNC(=O)c3n[nH]c4ccc(-c5cccc(F)c5F)cc34)CC2)n1 [Compound 12, hydrate]: 5

(I) COc1ccncc1-c1ccc2[nH]nc(C(=O)NCC3CCN(Cc4ccc(C(=O)O)o4)CC3)c2c1 [Compound 21, formate]
(II) COc1ccc2[nH]nc(C(=O)NCC3CCN(Cc4ccc(C(=O)O)o4)CC3)c2c1
(III) COc1ccc2[nH]nc(C(=O)NCC3CCN(CCc4ccc(O)cc4)CC3)c2c1
Q: Arrange the 3 molecules by rising inhibition at 10 µM, starting with the smallest. // ordering of labels required in reply
Ans: II, I, III
(II: 1%, I: 4%, III: 10%)

###

SYSTEM TESTED: IRK (h) (InsR) (Homo sapiens (Human))
Sequence (P06213 28-1382): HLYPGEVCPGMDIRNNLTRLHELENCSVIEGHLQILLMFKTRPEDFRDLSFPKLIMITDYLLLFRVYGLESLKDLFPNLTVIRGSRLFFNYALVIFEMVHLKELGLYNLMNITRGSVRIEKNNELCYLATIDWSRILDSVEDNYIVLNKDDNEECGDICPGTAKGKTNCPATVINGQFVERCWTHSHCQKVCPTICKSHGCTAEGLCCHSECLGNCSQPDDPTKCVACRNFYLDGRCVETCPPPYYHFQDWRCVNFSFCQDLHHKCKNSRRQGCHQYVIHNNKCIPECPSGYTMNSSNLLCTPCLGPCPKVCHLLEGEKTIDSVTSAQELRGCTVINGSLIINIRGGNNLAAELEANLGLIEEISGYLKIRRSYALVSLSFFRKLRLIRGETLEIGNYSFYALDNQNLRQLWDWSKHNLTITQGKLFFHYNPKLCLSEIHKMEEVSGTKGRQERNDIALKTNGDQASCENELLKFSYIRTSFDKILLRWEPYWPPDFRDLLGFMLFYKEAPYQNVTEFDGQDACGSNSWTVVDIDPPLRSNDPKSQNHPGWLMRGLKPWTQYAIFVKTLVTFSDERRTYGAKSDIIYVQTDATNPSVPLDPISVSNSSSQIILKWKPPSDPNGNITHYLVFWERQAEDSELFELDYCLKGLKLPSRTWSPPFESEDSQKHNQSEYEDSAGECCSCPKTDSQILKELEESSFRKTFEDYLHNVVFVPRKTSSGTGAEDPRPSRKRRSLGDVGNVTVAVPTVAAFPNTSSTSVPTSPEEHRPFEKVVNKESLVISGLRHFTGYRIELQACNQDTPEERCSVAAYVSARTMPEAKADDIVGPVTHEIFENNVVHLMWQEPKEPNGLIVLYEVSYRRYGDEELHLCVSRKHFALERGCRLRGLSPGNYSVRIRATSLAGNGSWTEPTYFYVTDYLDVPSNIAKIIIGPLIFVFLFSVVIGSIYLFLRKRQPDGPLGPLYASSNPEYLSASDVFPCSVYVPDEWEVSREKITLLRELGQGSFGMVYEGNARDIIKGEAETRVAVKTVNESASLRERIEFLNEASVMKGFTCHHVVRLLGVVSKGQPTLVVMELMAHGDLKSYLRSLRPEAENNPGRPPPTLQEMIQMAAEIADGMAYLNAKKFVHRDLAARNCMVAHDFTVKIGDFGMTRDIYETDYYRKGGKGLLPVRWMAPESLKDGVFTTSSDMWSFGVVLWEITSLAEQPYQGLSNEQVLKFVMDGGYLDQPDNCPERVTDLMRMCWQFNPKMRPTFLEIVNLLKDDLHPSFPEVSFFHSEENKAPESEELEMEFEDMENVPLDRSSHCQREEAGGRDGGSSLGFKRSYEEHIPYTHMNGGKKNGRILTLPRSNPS
PROTOCOL NOTES: Kinase selectivity panel
Format: biochemical
MEASUREMENT SETUP: duplicate, read-out: % inhibition of control values, IRK (h) (InsR)
Counter-ions that a name gives are not always drawn.
MEASURE NAME: inhibition at 10 µM (%)

• O=C(O)c1coc(CN2CCC(CNC(=O)c3n[nH]c4ccc(-c5cccc(F)c5F)cc34)CC2)n1 [Compound 12, hydrate] = 0
• COc1ccncc1-c1ccc2[nH]nc(C(=O)NCC3CCN(Cc4ccc(C(=O)O)o4)CC3)c2c1 [Compound 21, formate] = 0
• COc1ccc2[nH]nc(C(=O)NCC3CCN(CCc4ccc(O)cc4)CC3)c2c1 = 18

(P) COC(=O)c1csc(CN2CCC(CNC(=O)c3n[nH]c4ccc(OC)cc34)CC2)n1
(Q) COc1ccc2[nH]nc(C(=O)NCC3CCN(Cc4ccc(C(=O)O)o4)CC3)c2c1
Q: From the recorded data, which exceeds the other in inhibition at 10 µM: P or Q ? Respond with the label that goes with your answer.
Ans: Q

###

SYSTEM TESTED: UniProt P12931
Sequence (P12931 whole entry, looked up): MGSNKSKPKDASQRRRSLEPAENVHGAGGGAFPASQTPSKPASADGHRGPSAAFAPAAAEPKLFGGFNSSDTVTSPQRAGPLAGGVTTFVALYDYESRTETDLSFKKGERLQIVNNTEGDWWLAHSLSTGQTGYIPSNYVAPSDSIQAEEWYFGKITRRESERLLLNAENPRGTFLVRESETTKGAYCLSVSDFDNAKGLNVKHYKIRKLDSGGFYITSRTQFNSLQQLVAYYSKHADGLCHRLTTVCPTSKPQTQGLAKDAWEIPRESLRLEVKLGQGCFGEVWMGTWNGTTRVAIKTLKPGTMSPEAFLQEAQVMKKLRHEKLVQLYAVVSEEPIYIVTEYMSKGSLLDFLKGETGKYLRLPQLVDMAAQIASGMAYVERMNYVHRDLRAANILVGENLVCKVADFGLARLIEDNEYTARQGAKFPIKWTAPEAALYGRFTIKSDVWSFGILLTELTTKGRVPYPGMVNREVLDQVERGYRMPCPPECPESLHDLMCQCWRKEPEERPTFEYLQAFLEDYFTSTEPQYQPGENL
PROTOCOL NOTES: Kinase selectivity panel
Assay type: biochemical
MEASUREMENT SETUP: duplicate, read-out: % inhibition of control values, Src kinase (h)
Where a name gives a salt, the structure may show the parent alone.
MEASURE NAME: inhibition at 10 µM (%)

(A) COc1ccncc1-c1ccc2[nH]nc(C(=O)NCC3CCN(Cc4ccc(C(=O)O)o4)CC3)c2c1 [Compound 21, formate]
(B) COC(=O)c1csc(CN2CCC(CNC(=O)c3n[nH]c4ccc(OC)cc34)CC2)n1 [Compound 7]
Q: Hello, I am sorting some records. Could you say if A or B has the smaller inhibition at 10 µM value? Respond with the label that goes with your answer.
Ans: A

###

SYSTEM TESTED: ERK1 (h) (Homo sapiens (Human), UniProt P27361)
Sequence (P27361 whole entry): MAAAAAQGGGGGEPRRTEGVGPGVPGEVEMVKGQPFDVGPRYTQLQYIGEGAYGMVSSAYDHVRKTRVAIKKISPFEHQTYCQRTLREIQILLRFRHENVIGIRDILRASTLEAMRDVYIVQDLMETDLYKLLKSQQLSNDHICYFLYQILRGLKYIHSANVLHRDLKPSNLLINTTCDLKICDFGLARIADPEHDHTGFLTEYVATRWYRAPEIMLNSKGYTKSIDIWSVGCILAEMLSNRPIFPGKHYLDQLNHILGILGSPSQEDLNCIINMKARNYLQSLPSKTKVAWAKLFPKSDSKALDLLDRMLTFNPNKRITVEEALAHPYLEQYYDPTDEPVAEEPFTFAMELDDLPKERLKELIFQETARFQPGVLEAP
PROTOCOL NOTES: Kinase selectivity panel
Type: biochemical
MEASUREMENT SETUP: duplicate, read-out: % inhibition of control values, ERK1 (h)
Counter-ions that a name gives are not always drawn.
MEASURE NAME: inhibition at 10 µM (%)

Known inhibition at 10 µM results, listed for orientation:
• COc1ccncc1-c1ccc2[nH]nc(C(=O)NCC3CCN(Cc4ccc(C(=O)O)o4)CC3)c2c1 [Compound 21, formate] = 81
• COC(=O)c1csc(CN2CCC(CNC(=O)c3n[nH]c4ccc(OC)cc34)CC2)n1 = 31
• O=C(O)c1coc(CN2CCC(CNC(=O)c3n[nH]c4ccc(-c5cccc(F)c5F)cc34)CC2)n1 [Compound 12, hydrate] = 85

(1) COc1ccc2[nH]nc(C(=O)NCC3CCN(Cc4ccc(C(=O)O)o4)CC3)c2c1
(2) COc1ccc2[nH]nc(C(=O)NCC3CCN(CCc4ccc(O)cc4)CC3)c2c1
Q: From the recorded data, which exceeds the other in inhibition at 10 µM: 1 or 2 ? Respond with the label that goes with your answer.
Ans: 2

###

SYSTEM TESTED: CDK2 (h) (cycA) (Homo sapiens (Human), UniProt P24941)
PROTOCOL NOTES: Kinase selectivity panel and IC50 determination
Type: biochemical
MEASUREMENT SETUP: Table 5A, method of test I, second assay
MEASURE NAME: IC50 (µM)
Lab book: enter the figure in µM, no units written.

Q: IC50 for COc1ccc2[nH]nc(C(=O)NCC3CCN(CCc4ccc(O)cc4)CC3)c2c1 ?
Ans: 36
